Data provenance: patent US10919889B2

biological target: CYP2C9 (Homo sapiens, UniProt P11712); construct: containing HLM (0.2 mg/mL), phosphate buffer (100 mM, pH 7.4); from tissue; host or cells: liver microsomes (HLM); test: CYP liver enzyme inhibition experiment, CYP-2C9; type: in vitro ADME; conditions: human liver microsomes, pH 7.4, probe toluenesulfonylurea (tolbutamide), 100 µM, at a concentration of 10M, read-out: inhibitory rate to CYP-2C9
Sequence (P11712 whole entry): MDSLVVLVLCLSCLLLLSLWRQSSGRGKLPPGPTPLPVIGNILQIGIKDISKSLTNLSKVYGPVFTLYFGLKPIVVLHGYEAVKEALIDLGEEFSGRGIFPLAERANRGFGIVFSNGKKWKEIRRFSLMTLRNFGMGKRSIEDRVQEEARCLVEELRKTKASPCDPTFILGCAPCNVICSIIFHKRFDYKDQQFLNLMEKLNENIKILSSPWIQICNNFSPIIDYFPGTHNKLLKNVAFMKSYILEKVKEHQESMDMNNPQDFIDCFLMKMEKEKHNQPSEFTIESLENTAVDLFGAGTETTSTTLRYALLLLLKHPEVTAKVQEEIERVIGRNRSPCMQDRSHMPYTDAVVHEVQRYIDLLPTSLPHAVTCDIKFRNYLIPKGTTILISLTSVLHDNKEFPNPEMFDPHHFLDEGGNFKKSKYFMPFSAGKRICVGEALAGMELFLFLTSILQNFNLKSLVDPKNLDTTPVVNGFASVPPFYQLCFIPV
experimental-endpoint: inhibition at 30 min, 10 µM (%)
Quick note: give the figure in %, leave out the unit.

## Task I'd like to know its inhibition at 30 min, 10 µM. The compound in question is Cc1cnc(-c2cc(N3CCc4nc(N5CCC(O)CC5)ncc4[C@H]3C)ncc2Cl)c(C)c1
## Result 26

###

bioavailability values for the compounds below.
test: Rat pharmacokinetics experiments; type: in vivo, Sprague-Dawley rats; settings: male, Sprague-Dawley, plasma, po, 10 mg/kg, P.O. 10 mg/kg vs I.V. 2 mg/kg, read-out: F %

Solved cases (2 shown):
{"compound": "Cc1cnc(-c2cc(N3CCc4nc(N5CCC(O)CC5)ncc4[C@H]3C)ncc2Cl)c(C)c1", "bioavailability": "100%"}
{"compound": "Cc1cnc(-c2cc(N3CCc4nc(N5CCC(O)CC5)ncc4C3C)ncc2Cl)c(C)c1 (racemic)", "bioavailability": "53%"}

Could you now consider this next compound?
## Task I'd like to know its bioavailability. The compound in question is Cc1cnc(-c2cc(N3CCc4nc(N5CCC(O)CC5)ncc4C3)ncc2Cl)c(C)c1 [Compound A-55, reference compound]
## Result 62%

###

target: CYP2C9 (Homo sapiens, UniProt P11712); construct: containing HLM (0.2 mg/mL), phosphate buffer (100 mM, pH 7.4); from tissue; host or cells: liver microsomes (HLM); test: CYP liver enzyme inhibition experiment, CYP-2C9; type: in vitro ADME; conditions: human liver microsomes, pH 7.4, probe tolbutamide (tolbutamide hydroxylation), Table 6, HLM, read-out: CYP-2C9 Inhibition (%)
experimental-endpoint: inhibition at 30 min, 10 µM
Note: a bare number is incomplete; add the unit.

{"compound": "Cc1cnc(-c2cc(N3CCc4nc(N5CCC(O)CC5)ncc4[C@H]3C)ncc2Cl)c(C)c1", "assay-result": "26%"}

## Task I'm curious: which inhibition at 30 min, 10 µM was measured for Cc1cnc(-c2cc(N3CCc4nc(N5CCC(O)CC5)ncc4C3C)ncc2Cl)c(C)c1 (racemic) tested on CYP2C9 (Homo sapiens, UniProt P11712)?
## Result 52%

###

assay: Rat pharmacokinetics experiments; type: in vivo, Sprague-Dawley rats; details: male, Sprague-Dawley, plasma, intravenous injection, 2 mg/kg, read-out: Apparent volume of distribution Vd, ss
Vd values for the molecules below.
Quick note: give the figure in L/kg, leave out the unit.

Solved cases (2 shown):
{"molecule": "Cc1cnc(-c2cc(N3CCc4nc(N5CCC(O)CC5)ncc4C3C)ncc2Cl)c(C)c1 (racemic)", "experimental-endpoint": "Vd", "quantity-unit": "L/kg", "assay-result": 3.1}
{"molecule": "Cc1cnc(-c2cc(N3CCc4nc(N5CCC(O)CC5)ncc4[C@H]3C)ncc2Cl)c(C)c1", "experimental-endpoint": "Vd", "quantity-unit": "L/kg", "assay-result": 2.2}

## Task I'd like to know its Vd. The molecule in question is Cc1cnc(-c2cc(N3CCc4nc(N5CCC(O)CC5)ncc4C3)ncc2Cl)c(C)c1 [Compound A-55, reference compound]
## Result 1.7

###

experiment: Rat pharmacokinetics experiments; assay type: in vivo, Sprague-Dawley rats; details: male, Sprague-Dawley, plasma, oral, 10 mg/kg, read-out: Maximum plasma concentration Cmax
experimental-endpoint: Cmax (ng/mL)
Quick note: give the figure in ng/mL, leave out the unit.

{"molecule": "Cc1cnc(-c2cc(N3CCc4nc(N5CCC(O)CC5)ncc4C3C)ncc2Cl)c(C)c1 (racemic)", "assay-result": 1690}
{"molecule": "Cc1cnc(-c2cc(N3CCc4nc(N5CCC(O)CC5)ncc4C3)ncc2Cl)c(C)c1 [Compound A-55, reference compound]", "assay-result": 2180}

Could you now consider this next molecule?
## Task I'd like to know its Cmax. The molecule in question is Cc1cnc(-c2cc(N3CCc4nc(N5CCC(O)CC5)ncc4[C@H]3C)ncc2Cl)c(C)c1
## Result 1520

###

system: Hh signaling pathway; experiment: NIH3T3-GRE-Luc luciferase reporter assay (primary assay); format: cell-based; conditions: read-out: IC50 (Hh pathway)
IC50 values for the compounds below.
Quick note: give the figure in nM, leave out the unit.

{"compound": "Cc1cnc(-c2cc(N3CCc4nc(N5CCC(O)CC5)ncc4C3C)ncc2Cl)c(C)c1 (racemic) [B]", "IC50, nM": 2.7}

Could you now consider this next compound?
## Task I'd like to know its IC50. The compound in question is Cc1cnc(-c2cc(N3CCc4nc(N5CCC(O)CC5)ncc4[C@H]3C)ncc2Cl)c(C)c1 [Compound B1]
## Result 0.8

###

molecular target: WT-Smo (Homo sapiens, UniProt Q99835)
Sequence (Q99835 28-787): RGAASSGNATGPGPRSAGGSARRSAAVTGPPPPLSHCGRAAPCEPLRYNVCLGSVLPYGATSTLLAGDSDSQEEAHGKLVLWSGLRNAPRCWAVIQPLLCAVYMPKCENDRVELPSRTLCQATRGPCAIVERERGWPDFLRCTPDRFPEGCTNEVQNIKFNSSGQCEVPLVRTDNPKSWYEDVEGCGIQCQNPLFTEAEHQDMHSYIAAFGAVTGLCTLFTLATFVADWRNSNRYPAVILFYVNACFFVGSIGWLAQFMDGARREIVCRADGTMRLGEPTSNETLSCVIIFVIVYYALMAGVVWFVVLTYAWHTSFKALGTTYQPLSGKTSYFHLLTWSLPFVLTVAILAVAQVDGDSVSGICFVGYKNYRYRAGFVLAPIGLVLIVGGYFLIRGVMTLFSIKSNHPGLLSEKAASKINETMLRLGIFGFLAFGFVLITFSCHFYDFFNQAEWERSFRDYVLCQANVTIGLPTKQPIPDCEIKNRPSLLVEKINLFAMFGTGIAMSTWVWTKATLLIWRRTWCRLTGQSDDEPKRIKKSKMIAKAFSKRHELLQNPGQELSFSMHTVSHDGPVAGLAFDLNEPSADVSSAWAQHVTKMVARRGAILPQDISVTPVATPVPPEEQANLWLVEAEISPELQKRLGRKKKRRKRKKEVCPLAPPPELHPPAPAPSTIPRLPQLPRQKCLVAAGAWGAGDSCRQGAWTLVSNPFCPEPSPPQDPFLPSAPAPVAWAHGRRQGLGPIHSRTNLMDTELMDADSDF
experimental-endpoint: Kd (nM)
Quick note: give the figure in nM, leave out the unit.

## Task I'd like to know its Kd. The compound in question is CC1=C2CC3C(CC=C4C[C@@H](O)CCC43C)C2CCC12O[C@@H]1CC(C)CN(CCNC(=O)CCCCCNC(=O)CCC3=[N+]4C(=Cc5c(C)cc(C)n5[B-]4(F)F)C=C3)C1C2C (stereo partly shown) [bodipy-cyclopamine]
## Result 3.5

###

Tmax values for the compounds below.
assay: Rat pharmacokinetics experiments; type: in vivo, Sprague-Dawley rats; conditions: male, Sprague-Dawley, plasma, oral, 10 mg/kg, read-out: Peak time Tmax
Quick note: give the figure in min, leave out the unit.

Solved cases (2 shown):
{"compound": "Cc1cnc(-c2cc(N3CCc4nc(N5CCC(O)CC5)ncc4[C@H]3C)ncc2Cl)c(C)c1 [Compound B1]", "experimental-endpoint": "Tmax", "assay-result": 60}
{"compound": "Cc1cnc(-c2cc(N3CCc4nc(N5CCC(O)CC5)ncc4C3C)ncc2Cl)c(C)c1 (racemic) [B]", "experimental-endpoint": "Tmax", "assay-result": 30}

Could you now consider this next compound?
## Task I'd like to know its Tmax. The compound in question is Cc1cnc(-c2cc(N3CCc4nc(N5CCC(O)CC5)ncc4C3)ncc2Cl)c(C)c1 [Compound A-55, reference compound]
## Result 30

###

inhibition at 10 min, 10 µM values for the compounds below.
target: CYP2D6 (Homo sapiens, UniProt P10635); construct: containing HLM (0.2 mg/mL), phosphate buffer (100 mM, pH 7.4); from tissue; host or cells: liver microsomes (HLM); experiment: CYP liver enzyme inhibition experiment, CYP-2D6; type: in vitro ADME; details: human liver microsomes, pH 7.4, probe dextromethorphan, test compound 10 μM, HLM, dextromethorphan 5 μM, read-out: CYP-2D6 Inhibitory rate (%)
Sequence (P10635 whole entry): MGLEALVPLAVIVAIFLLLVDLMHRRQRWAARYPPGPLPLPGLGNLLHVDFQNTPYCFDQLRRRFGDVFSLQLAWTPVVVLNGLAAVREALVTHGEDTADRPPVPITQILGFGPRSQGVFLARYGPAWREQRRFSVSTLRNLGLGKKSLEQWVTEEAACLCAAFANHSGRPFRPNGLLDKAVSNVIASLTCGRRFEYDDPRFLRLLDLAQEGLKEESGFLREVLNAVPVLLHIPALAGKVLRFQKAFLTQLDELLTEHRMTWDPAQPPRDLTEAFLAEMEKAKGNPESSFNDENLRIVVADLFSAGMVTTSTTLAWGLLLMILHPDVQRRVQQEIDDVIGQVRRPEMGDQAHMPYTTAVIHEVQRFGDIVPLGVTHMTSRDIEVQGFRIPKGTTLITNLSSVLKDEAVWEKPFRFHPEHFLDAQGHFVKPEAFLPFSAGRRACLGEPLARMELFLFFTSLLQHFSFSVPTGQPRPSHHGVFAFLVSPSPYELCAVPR
Quick note: give the figure in %, leave out the unit.

{"compound": "Cc1cnc(-c2cc(N3CCc4nc(N5CCC(O)CC5)ncc4C3C)ncc2Cl)c(C)c1 (racemic) [B]", "assay-target": "CYP2D6 (Homo sapiens, UniProt P10635)", "assay-result": 30}

## Task I'd like to know its inhibition at 10 min, 10 µM. The compound in question is Cc1cnc(-c2cc(N3CCc4nc(N5CCC(O)CC5)ncc4[C@H]3C)ncc2Cl)c(C)c1 [Compound B1]
## Result 24

###

assay: Rat pharmacokinetics experiments; format: in vivo, Sprague-Dawley rats; conditions: male, Sprague-Dawley, plasma, intravenous injection, 2 mg/kg, read-out: Area under the curve AUC0-24 h
AUC(0-t) values for the molecules below.
Quick note: give the figure in ng·h/mL, leave out the unit.

{"molecule": "Cc1cnc(-c2cc(N3CCc4nc(N5CCC(O)CC5)ncc4[C@H]3C)ncc2Cl)c(C)c1", "AUC(0-t), ng·h/mL": 2230}
{"molecule": "Cc1cnc(-c2cc(N3CCc4nc(N5CCC(O)CC5)ncc4C3C)ncc2Cl)c(C)c1 (racemic)", "AUC(0-t), ng·h/mL": 2900}

Could you now consider this next molecule?
## Task I'd like to know its AUC(0-t). The molecule in question is Cc1cnc(-c2cc(N3CCc4nc(N5CCC(O)CC5)ncc4C3)ncc2Cl)c(C)c1 [Compound A-55, reference compound]
## Result 1780

###

assay: Rat pharmacokinetics experiments; type: in vivo, Sprague-Dawley rats; details: male, Sprague-Dawley, plasma, po, 10 mg/kg, oral, read-out: bioavailability
bioavailability values for the compounds below.
Quick note: give the figure in %, leave out the unit.

{"compound": "Cc1cnc(-c2cc(N3CCc4nc(N5CCC(O)CC5)ncc4C3C)ncc2Cl)c(C)c1 (racemic)", "bioavailability, %": 53}

## Task I'd like to know its bioavailability. The compound in question is Cc1cnc(-c2cc(N3CCc4nc(N5CCC(O)CC5)ncc4C3)ncc2Cl)c(C)c1 [Compound A-55, reference compound]
## Result 62
